This listing pairs binders with measured OD value.
Target: T1, human Nectin-4 extracellular antigen hNectin-4-His (human, UniProt Q96NY8 32-349)
T1 construct: C-terminal 8xHis tag included
T1 sequence: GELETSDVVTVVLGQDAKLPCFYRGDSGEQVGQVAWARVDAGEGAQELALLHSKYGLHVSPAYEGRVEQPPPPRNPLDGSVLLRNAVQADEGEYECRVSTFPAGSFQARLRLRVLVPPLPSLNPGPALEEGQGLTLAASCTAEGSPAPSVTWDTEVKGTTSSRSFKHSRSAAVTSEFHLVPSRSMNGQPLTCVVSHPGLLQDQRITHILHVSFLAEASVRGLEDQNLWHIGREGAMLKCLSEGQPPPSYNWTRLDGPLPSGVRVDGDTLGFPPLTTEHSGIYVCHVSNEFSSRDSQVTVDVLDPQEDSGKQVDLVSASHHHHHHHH
Assay notes: ELISA, phage scFv supernatant 1:50

query: # lookup: OD value of 1G8-2H4 scFv (scFv, V domains shown, phage clone supernatant) VH: EVQLVESGGGLVQPGGSLRLSCAASGDSFTGYAMSWVRQAPGKGLEWVSAISGSGGSTYYADSVKGRFTISRDNSKNTLYLQMNSLRAEDTAVYYCARQTEDRSYGYDLDYWGQGTLVTVSS VL: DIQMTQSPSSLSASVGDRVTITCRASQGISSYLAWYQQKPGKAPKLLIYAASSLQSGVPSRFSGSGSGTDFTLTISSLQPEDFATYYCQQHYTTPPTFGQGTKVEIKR
result: 1.58 OD

query: Same for 10F4-1H6 scFv (scFv, V domains shown, phage clone supernatant) VH: EVQLVESGGGLVQPGGSLRLSCAASGFNFYDYDMSWVRQAPGKGLEWVSGIKTHSGGNGYADSVKGRFTISRDNSKNTLYLQMNSLRAEDTAVYYCAREYSDVVDYVSVRTPLDYWGQGTLVTVSS VL: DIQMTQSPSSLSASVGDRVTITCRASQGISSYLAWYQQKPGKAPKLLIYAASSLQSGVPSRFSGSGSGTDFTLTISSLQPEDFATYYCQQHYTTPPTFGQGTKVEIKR
result: 1.48 OD
